Recorded viability, T/C for the following compounds
- Tested on: MPNST multicellular tumor spheroids, viability % test/control
- Experimental details: Anticancer human tumor MPNST cell line growth inhibition;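 also: luminescence signal used as surrogate for viable cell amount; spheroids exposed to agents for seven days after three days of growth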
- Measurement conditions: second compound 1 µM; first compound 3 µM; hits give low values
Measure name: viability, T/C (%)

# Compound, Recorded number
measured = [
    ("Cc1sc2c(c1C)C(c1ccc(Cl)cc1)=NC(CC(=O)Nc1ccc(O)cc1)c1nnc(C)n1-2 (centres undefined) + Cn1nnc2c(C(N)=O)ncn2c1=O", 47.3),
    ("CNCc1ccc(-c2cc(-c3nc(-c4ccc(S(=O)(=O)C(C)C)cc4)cnc3N)on2)cc1 + Cn1nnc2c(C(N)=O)ncn2c1=O", 63.8),
    ("Cn1ncnc1[C@H]1c2n[nH]c(=O)c3cc(F)cc(c23)N[C@@H]1c1ccc(F)cc1 + Cn1nnc2c(C(N)=O)ncn2c1=O", 50.8),
    ("O=C(c1cc(Cc2n[nH]c(=O)c3ccccc23)ccc1F)N1CCN(C(=O)C2CC2)CC1 + Cn1nnc2c(C(N)=O)ncn2c1=O", 71.9),
]

---

- Test system: MPNST multicellular tumor spheroids, viability % test/control
- Experimental details: Anticancer human tumor MPNST cell line growth inhibition;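 also: luminescence signal used as surrogate for viable cell amount; spheroids exposed to agents for seven days after three days of growth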
- Measurement conditions: second compound 10 µM; first compound 0.0316 µM; hits give low values
Measure name: viability, T/C

# Compound, Measure name, Result
data = [
    ("COc1ccc([C@@H](O)c2cc(-c3ncnc4cc(N5CCOCC5)ccc34)c(F)cc2Cl)nn1 + Cn1nnc2c(C(N)=O)ncn2c1=O", "viability, T/C", "86.8%"),
    ("CC(C)n1c(=O)n(C)c2cnc3cc(F)c(-c4ccc(OCCCN5CCCCC5)nc4)cc3c21 + Cn1nnc2c(C(N)=O)ncn2c1=O", "viability, T/C", "76.6%"),
    ("CC1COCCN1c1cc(-c2ccnn2C)c2ccnc(-c3ccn[nH]3)c2n1 (stereo not drawn) + Cn1nnc2c(C(N)=O)ncn2c1=O", "viability, T/C", "64.2%"),
]

---

- Test system: MPNST multicellular tumor spheroids, viability % test/control
- Experimental details: Anticancer human tumor MPNST cell line growth inhibition;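 also: luminescence signal used as surrogate for viable cell amount; spheroids exposed to agents for seven days after three days of growth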
- Measurement conditions: second compound 0.000949 µM; first compound 3.16 µM; hits give low values
Recorded viability, T/C for the following compounds

# Compound, Assay target, viability, T/C (%)
records = [
    ("CC(C)n1c(=O)n(C)c2cnc3cc(F)c(-c4ccc(OCCCN5CCCCC5)nc4)cc3c21 + COc1cc2c(cc1O)CCNC21CSC2c3c(OC(C)=O)c(C)c4c(c3C(COC1=O)N1C(O)C3Cc5cc(C)c(OC)c(O)c5C(C21)N3C)OCO4", "MPNST multicellular tumor spheroids, viability % test/control", 45.2),
    ("COc1ccc([C@@H](O)c2cc(-c3ncnc4cc(N5CCOCC5)ccc34)c(F)cc2Cl)nn1 + COc1cc2c(cc1O)CCNC21CSC2c3c(OC(C)=O)c(C)c4c(c3C(COC1=O)N1C(O)C3Cc5cc(C)c(OC)c(O)c5C(C21)N3C)OCO4", "MPNST multicellular tumor spheroids, viability % test/control", 11.7),
    ("Cc1cc(C)c(CNC(=O)c2cc(-c3ccc(CN4CCOCC4)cc3)cc3c2cnn3C2CCCC2)c(=O)[nH]1 + COc1cc2c(cc1O)CCNC21CSC2c3c(OC(C)=O)c(C)c4c(c3C(COC1=O)N1C(O)C3Cc5cc(C)c(OC)c(O)c5C(C21)N3C)OCO4", "MPNST multicellular tumor spheroids, viability % test/control", 44.3),
    ("CC1COCCN1c1cc(-c2ccnn2C)c2ccnc(-c3ccn[nH]3)c2n1 (stereo unspecified) + COc1cc2c(cc1O)CCNC21CSC2c3c(OC(C)=O)c(C)c4c(c3C(COC1=O)N1C(O)C3Cc5cc(C)c(OC)c(O)c5C(C21)N3C)OCO4", "MPNST multicellular tumor spheroids, viability % test/control", 24.2),
    ("COc1cc(C)[nH]c(=O)c1CN1CCc2c(Cl)cc(C(OC)C3COC3)c(Cl)c2C1=O (stereo unspecified) + COc1cc2c(cc1O)CCNC21CSC2c3c(OC(C)=O)c(C)c4c(c3C(COC1=O)N1C(O)C3Cc5cc(C)c(OC)c(O)c5C(C21)N3C)OCO4", "MPNST multicellular tumor spheroids, viability % test/control", 42.6),
    ("[2H]c1nc(C)nc([2H])c1-c1cc(NC[C@@H](C)c2cccc3c(C(=O)NC)ccnc23)ncn1 + COc1cc2c(cc1O)CCNC21CSC2c3c(OC(C)=O)c(C)c4c(c3C(COC1=O)N1C(O)C3Cc5cc(C)c(OC)c(O)c5C(C21)N3C)OCO4", "MPNST multicellular tumor spheroids, viability % test/control", 42.3),
]
